Where do these numbers come from? They come from the Human Domainome abundance scans (Beltran et al. 2025).

B1: POU domain, class 6, transcription factor 2, residues 609 to 663; numbered along this chain, P78424 (parent)
chain: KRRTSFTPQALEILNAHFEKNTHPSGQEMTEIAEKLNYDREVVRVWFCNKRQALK

Variants of: B1
assay_procedure: abundance fitness (aPCA) (normalised: wild type 0, dead -1); higher = more abundant; growth selection in yeast, the domain comes from the species named
condition_label: Homo sapiens
Some variants, each annotated with its measured abundance fitness.
Give only the figure.

{"mutation_code": "N21I", "abundance fitness": -0.351}
{"mutation_code": "V43G", "abundance fitness": -0.943}
{"mutation_code": "N37L", "abundance fitness": -0.241}

Inquiry: Please look at this variant and report its abundance fitness: I13T
Reply text: -0.003

Inquiry: Please look at this variant and report its abundance fitness: P8M
Reply text: 0.037

Inquiry: Please look at this variant and report its abundance fitness: Q9K
Reply text: -0.037

Inquiry: Please look at this variant and report its abundance fitness: R3C
Reply text: -0.236

Inquiry: Please look at this variant and report its abundance fitness: S5Q
Reply text: 0.221

Inquiry: Please look at this variant and report its abundance fitness: Q27W
Reply text: -0.142

Inquiry: Please look at this variant and report its abundance fitness: A10R
Reply text: -0.904

Inquiry: Please look at this variant and report its abundance fitness: W46N
Reply text: -0.891

Inquiry: Please look at this variant and report its abundance fitness: V45W
Reply text: -0.055

Inquiry: Please look at this variant and report its abundance fitness: E19D
Reply text: -0.037

Inquiry: Please look at this variant and report its abundance fitness: K1I
Reply text: 0.111
